- ASSAY_TEXT: NCI Yeast Anticancer Drug Screen. Data for the mec2-1 strain (AID 157)
- TEST_PARAMETERS: S. cerevisiae mec2-1 strain, at 5.0 µM (retest, dose inferred, filed as 0.5)
This is part of a sample that, as a whole, favours compounds with a hit. Of some 79,000 tested, about 15% had one in any assay. Activity calls are given as the source filed them. Cut-off read from the data, not from the text of the source: active = growth inhibition above about 70%; inactive = the rest.
Classes used: yes = active, no = inactive

[[record]]
molecule = "CC(=O)c1c2c(cc3c1CC1(C3)Cc3ccc4c(c3C1=O)CCC4)CCC2 (configuration not stated)"
group_label = "no"

[[record]]
molecule = "Cc1c(Cl)nc(-c2ccccc2)nc1C(=O)CCl"
group_label = "no"

[[record]]
molecule = "C=CCC(O)C(=O)OC1CC(C)CCC1C(C)(C)c1ccccc1 (configuration not stated)"
group_label = "no"

[[record]]
molecule = "CN(C)c1nc(=NCc2ccccc2)ss1"
group_label = "no"

[[record]]
molecule = "CCCCCCC(C)OC(=O)/C=C/c1ccccc1 (configuration not stated)"
group_label = "no"

[[record]]
molecule = "CCCCCc1ccc2cc(C(=O)O)[nH]c2c1"
group_label = "no"

[[record]]
molecule = "COC1CCC(O)C(CO)O1 (configuration not stated)"
group_label = "yes"

[[record]]
molecule = "COc1cc(/C=C(/C)C[N+](=O)[O-])ccc1O"
group_label = "no"

[[record]]
molecule = "Cc1cc(N)c2ccccc2[n+]1CCCCCCCCCC[n+]1c(C)cc(N)c2ccccc21"
group_label = "no"

[[record]]
molecule = "O=C(Nc1ccccc1F)C(Br)C(Br)c1ccccc1 (configuration not stated)"
group_label = "no"

[[record]]
molecule = "Clc1ccc(-c2cc(-c3cc(-c4ccc(Cl)c(Cl)c4)n[nH]3)[nH]n2)cc1Cl"
group_label = "no"

[[record]]
molecule = "CSc1ccc2c(c1)S[S@@](=O)N2"
group_label = "no"

